System: HuVECs
Assay Explanation: Endothelial tube formation assay in HuVECs
Experimental Context: 75 nM oligomeric compound, Table 56
In the oligonucleotide strings, read from the 5' end, every base follows the letter of its sugar. An asterisk marks phosphorothioate; unmarked linkages are phosphodiester. Other units and linkages are bracketed, terminal groups are in braces. A string of capitals states the bases alone. e = 2'-O-(2-methoxyethyl) (MOE); [5mC] = 5-methylcytosine
Kindly return Met if reported % Activity Relative to UTC (tube formation) is no lower than 60%; return Not met if it is lower.

Input: Evaluate 327896 (antisense eA*e[5mC]*eA*eG*eT*eT*e[5mC]*eT*eT*e[5mC]*eA*eA*e[5mC]*eT*eG*eG*e[5mC]*eA*eG*e[5mC]*eT*eT) [compound 327896] : % Activity Relative to UTC (tube formation) at minimum 60%?
Output: Met

Input: Evaluate 327875 (antisense eA*e[5mC]*eA*eA*e[5mC]*e[5mC]*eA*eG*e[5mC]*eT*eA*eA*eG*eA*e[5mC]*eA*e[5mC]*eT*eG*e[5mC]*e[5mC]*eA) [compound 327875] : % Activity Relative to UTC (tube formation) at minimum 60%?
Output: Met

Input: Evaluate 327894 (antisense eA*eT*eA*e[5mC]*eA*eT*eA*e[5mC]*eT*eT*e[5mC]*eT*eT*eT*eA*e[5mC]*eA*eT*eT*e[5mC]*e[5mC]*eA) [compound 327894] : % Activity Relative to UTC (tube formation) at minimum 60%?
Output: Met

Input: Evaluate 327892 (antisense eA*e[5mC]*eT*eT*eT*e[5mC]*eG*eG*eT*eT*eA*eT*e[5mC]*eT*eA*eG*e[5mC]*eT*eT*eT*eA) [compound 327892] : % Activity Relative to UTC (tube formation) at minimum 60%?
Output: Not met

Input: Evaluate 327881 (antisense eA*eA*eA*eA*eG*eA*eG*eA*e[5mC]*e[5mC]*eG*eG*eT*eT*e[5mC]*eA*e[5mC]*eT*eG*eT*eG*eA) [compound 327881] : % Activity Relative to UTC (tube formation) at minimum 60%?
Output: Not met

---

Tested on: BJ, B16-F10, T47D, T47Dp53 and HeLa cells
Assay Explanation: Cell cycle assay (propidium iodide flow cytometry), cell line panel
Assay type: cell-based
Experimental Context: 150 nM oligomeric compound, 4.5 μg/ml LIPOFECTIN, after 72 hours, propidium iodide flow cytometry
In the oligonucleotide strings, read from the 5' end, every base follows the letter of its sugar. An asterisk marks phosphorothioate; unmarked linkages are phosphodiester. Other units and linkages are bracketed, terminal groups are in braces. A string of capitals states the bases alone. e = 2'-O-(2-methoxyethyl) (MOE); [5mC] = 5-methylcytosine; d = 2'-deoxy (DNA)
Measure Name: aneuploid (percentage of cells)

Input: Which value of aneuploid (percentage of cells) has been reported for 328396 (antisense e[5mC]*eT*eG*eG*eT*dT*dG*dG*dG*dT*dA*dT*dG*dA*dG*eA*e[5mC]*eA*eG*eA) [compound 328396] in the records?
Output: 19.8%

Input: Which value of aneuploid (percentage of cells) has been reported for 327904 (antisense eA*e[5mC]*eT*e[5mC]*eA*e[5mC]*e[5mC]*eG*eA*e[5mC]*eA*eG*e[5mC]*eG*eT*eT*eG*eA*eA*eT*eG*eT*eT) [compound 327904] in the records?
Output: 15.6%

Input: Which value of aneuploid (percentage of cells) has been reported for 328342 (e[5mC]*eA*eA*eT*eT*dG*d[5mC]*dG*d[5mC]*dT*dA*d[5mC]*dA*dG*dA*eA*e[5mC]*eT*eG*eT) [compound 328342] in the records?
Output: 15.2%

Input: Which value of aneuploid (percentage of cells) has been reported for 327951 (antisense e[5mC]*eA*e[5mC]*eA*eA*eA*e[5mC]*e[5mC]*eA*eT*eT*eA*eT*eG*eT*eG*e[5mC]*eT*eG*e[5mC]*eT*eA) [compound 327951] in the records?
Output: 16.7%

Input: Which value of aneuploid (percentage of cells) has been reported for 328697 (eG*e[5mC]*eT*eT*eG*dT*d[5mC]*d[5mC]*dA*d[5mC]*dA*d[5mC]*dA*dG*dT*eT*e[5mC]*eA*eA*e[5mC]; antisense) [compound 328697] in the records?
Output: 13.5%

Input: Which value of aneuploid (percentage of cells) has been reported for 327911 (antisense eG*e[5mC]*eT*eA*e[5mC]*e[5mC]*eT*eG*e[5mC]*eA*e[5mC]*eT*eG*eT*eA*eA*eG*e[5mC]*eA*e[5mC]*eT*eT*eT*eT) [compound 327911] in the records?
Output: 16.5%

Input: Which value of aneuploid (percentage of cells) has been reported for 328419 (antisense eT*eG*eT*eT*eG*d[5mC]*d[5mC]*dT*dA*dA*d[5mC]*dG*dA*dA*d[5mC]*eA*e[5mC]*eA*eG*eA) [compound 328419] in the records?
Output: 17.9%

Input: Which value of aneuploid (percentage of cells) has been reported for 327908 (antisense e[5mC]*eA*eA*eT*eG*e[5mC]*eA*eA*e[5mC]*eT*eA*e[5mC]*eA*eA*eT*eG*e[5mC]*eA*e[5mC]) [compound 327908] in the records?
Output: 13.1%

Input: Which value of aneuploid (percentage of cells) has been reported for 328691 (e[5mC]*e[5mC]*e[5mC]*e[5mC]*eA*dT*d[5mC]*dT*dT*dA*dG*d[5mC]*dA*dT*d[5mC]*eT*eA*eA*eG*eG) [compound 328691] in the records?
Output: 16.6%

Input: Which value of aneuploid (percentage of cells) has been reported for 327934 (antisense eG*eG*eT*eA*e[5mC]*eA*eA*eT*e[5mC]*eA*eA*e[5mC]*eG*eG*eT*e[5mC]*eG*eA*eT*eG*eG*eT) [compound 327934] in the records?
Output: 17%

Input: Which value of aneuploid (percentage of cells) has been reported for NNNNNNNNNNNNNNNNNNNN [ISIS 29848, reference compound] in the records?
Output: 12%

The values you see were collected from patent US8178506B2.
